Experiment: viability of HCT116 without oncogenic beta-catenin – human colon tumor cells, pilot screen (AID 823);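 also: 0% = wells killed by 20 µM Hyamine and 100% = untreated DMSO cell wells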
Conditions: HCT116 beta-catenin knockout viability, CellTiter-Glo, 60 h; at 10 µM; active compounds read low
Inconclusive results are not listed.

{"columns": ["Compound", "viability / %"],
 "data": [
  ["Cc1cccc(-n2ncc3c(NCCc4ccc(S(N)(=O)=O)cc4)ncnc32)c1", 88.8],
  ["O=C(NCCN1CCOCC1)c1ccc2c(c1)N(Cc1ccccc1)CCS2", 93.2],
  ["O=C(O)c1ccc(Cl)c2c1C1C=CCC1C(c1ccccn1)N2 (stereo not given)", 98.3],
  ["CCn1cc(C(=O)NCc2ccccc2OC)c(=O)c2cc(S(=O)(=O)N(C)C)ccc21", 87.1],
  ["O=c1c2ccccc2nc(SCc2nc(-c3ccccc3)no2)n1-c1ccc(F)cc1", 72.2]
]}
